system: Myc/p53ER^TAM lymphoma cells; experiment: In vitro growth of Myc/p53ER^TAM lymphoma cells (cell number); assay type: cell-based, mice; settings: Mus musculus, 96 h; cell number measured on day 4, medium changed daily, single agent; read-out: IC50, impairment of lymphoma cell growth
quantity measured: pIC50
The quantity pIC50 is defined as the negative base-10 logarithm of the molar concentration.

pIC50 reading for CCN(CC)CCCC(C)Nc1ccnc2cc(Cl)ccc12 (stereo not shown) : 5.52
